The entries below are paired with their reported TL1A Binding Level (Early).
measured target: T1, human TL1A extracellular domain with N-terminal HIS and FLAG tag (human, UniProt O95150 72-251)
T1 construct: the whole entry is named; also called TNFSF15
T1 sequence: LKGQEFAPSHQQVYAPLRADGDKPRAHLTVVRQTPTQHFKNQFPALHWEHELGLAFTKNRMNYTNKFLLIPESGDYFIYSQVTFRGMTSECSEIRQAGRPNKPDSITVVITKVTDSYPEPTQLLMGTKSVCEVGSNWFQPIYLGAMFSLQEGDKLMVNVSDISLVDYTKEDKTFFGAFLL
method: SPR Run 8, antibody on Protein A, TL1A 5 ug/mL, timepoint 44
Procedure: 1.5. Antibody expression and antigen binding as determined by SPR. Using a CM5 sensor chip (GE Healthcare) Protein A (Pierce) was coupled to the chip surface using an amine coupling kit (GE Healthcare). Protein A was coupled on flow cell 1 and 2 (or alternatively 3 and 4) using a BIACORE® T200. […] At the end of injection of the supernatant or purified antibody the change in response units was measured. […] The response units were measured prior to the end of the dissociation phase. […]
Report only the number, with the unit RU understood.

Field: example entries. Status: answers known.
Entry 320-585 (antibody, human IgG1, name in Kabat numbering, V domains shown, full-length human IgG1, lambda) VH: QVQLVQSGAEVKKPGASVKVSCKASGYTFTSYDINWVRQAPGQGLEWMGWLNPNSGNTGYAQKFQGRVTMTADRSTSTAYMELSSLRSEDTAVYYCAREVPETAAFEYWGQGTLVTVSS VL: QSVLTQPPSVSGAPGQRVTISCTSSSSDIGAGQGVHWYQQLPGTAPKLLIEGYYNRPSGVPDRFSGSKSGTSASLTITGLLPEDEGDYYCQSWDGTLSALFGGGTKLTVLG : reported TL1A Binding Level (Early) = ?
116

Would you mind telling me what TL1A Binding Level (Early) value was observed for 320-590 (antibody, human IgG1, name in Kabat numbering, V domains shown, full-length human IgG1, lambda) VH: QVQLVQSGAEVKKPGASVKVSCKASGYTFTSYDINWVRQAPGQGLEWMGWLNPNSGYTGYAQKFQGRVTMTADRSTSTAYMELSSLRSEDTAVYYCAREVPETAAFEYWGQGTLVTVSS VL: QSVLTQPPSVSGAPGQRVTISCTSSSSDIGAGQGVHWYQQLPGTAPKLLIEGYYNRPSGVPDRFSGSKSGTSASLTITGLLPEDEGDYYCQSYDGTLSALFGGGTKLTVLG ?
130

Kindly consider the entry below.
Please give the measured TL1A Binding Level (Early) for this binder: 320-594 (antibody, human IgG1, name in Kabat numbering, V domains shown, full-length human IgG1, lambda) VH: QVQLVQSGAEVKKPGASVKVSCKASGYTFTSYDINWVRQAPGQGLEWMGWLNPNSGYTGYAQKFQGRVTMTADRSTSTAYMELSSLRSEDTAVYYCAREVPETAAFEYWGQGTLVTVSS VL: QSVLTQPPSVSGAPGQRVTISCTSSSSDIGAGQGVHWYQQLPGTAPKLLIEGYYNRPSGVPDRFSGSKSGTSASLTITGLLPEDEGDYYCQSWDGTLSALFGGGTKLTVLG
134
